Data credit: paper PMC8617031

test name: Viability (MTS) of Hela cells
Assay type: cell-based, human
condition: human, Hela cells, MTS absorbance 490, Conc 0.00137174 uM, read-out: cell viability normalised to control wells (mean of three replicates)
Description: Suspension cells were treated 30 min after seeding, whereas adherent cells were allowed to adhere overnight and were then treated. Compound treatments were prepared in complete cell culture medium and 100 µl of 2× treatment-containing medium were added to each well. […] The cell viability was measured after 72 h by tetrazolium-based MTS assay. […] The cells were incubated for 4 h at 37 °C and 5% CO2, and then the absorbance was recorded at 490 nm using Biotek’s Synergy Neo2 multimode plate reader (Biotek). […]
Measured viability at 72 h, 0.00137174 uM of individual entries
Please respond with the number in % and leave the unit unwritten.

INSERT INTO measurements (molecule_smiles, measurement_type, unit_of_measurement, recorded_value) VALUES
  ('CC1(C)CCC(c2ccc(Cl)cc2)=C(CN2CCN(c3ccc(C(=O)NS(=O)(=O)c4ccc(N[C@H](CCN5CCOCC5)CSc5ccccc5)c(S(=O)(=O)C(F)(F)F)c4)cc3)CC2)C1', 'viability at 72 h, 0.00137174 uM', '%', 108);

Now examine the next entry.
Note down viability at 72 h, 0.00137174 uM recorded for Cc1ncsc1-c1ccc([C@H](C)NC(=O)[C@@H]2C[C@@H](O)CN2C(=O)[C@@H](NC(=O)CCCCCC(=O)N2CCN(CC[C@H](CSc3ccccc3)Nc3ccc(S(=O)(=O)NC(=O)c4ccc(N5CCN(CC6=C(c7ccc(Cl)cc7)CCC(C)(C)C6)CC5)cc4)cc3S(=O)(=O)C(F)(F)F)CC2)C(C)(C)C)cc1
87.9

###

test name: Viability (MTS) of 293T cells
Assay type: cell-based, human
condition: human
measurement type: viability at 72 h, 0.037037 µM (%)
Lab book: enter the figure in %, no units written.

Retrieve viability at 72 h, 0.037037 µM measured for Cc1ncsc1-c1ccc([C@H](C)NC(=O)[C@@H]2C[C@@H](O)CN2C(=O)[C@@H](NC(=O)CCCCCC(=O)N2CCN(CC[C@H](CSc3ccccc3)Nc3ccc(S(=O)(=O)NC(=O)c4ccc(N5CCN(CC6=C(c7ccc(Cl)cc7)CCC(C)(C)C6)CC5)cc4)cc3S(=O)(=O)C(F)(F)F)CC2)C(C)(C)C)cc1 and print it.
106

###

test name: Viability (MTS) of 293T cells
Assay type: cell-based, human
condition: human, 293T cell viability, MTS absorbance 490 as percent of untreated control, single replicate well, 0.333333 uM, replicate well, normalised to own plate
measurement type: viability at 72 h, 0.333333 µM (%)
Your answer is read as %, so omit the unit and give the number.

Given the compound CC1(C)CCC(c2ccc(Cl)cc2)=C(CN2CCN(c3ccc(C(=O)NS(=O)(=O)c4ccc(N[C@H](CCN5CCOCC5)CSc5ccccc5)c(S(=O)(=O)C(F)(F)F)c4)cc3)CC2)C1 , write its reported viability at 72 h, 0.333333 µM.
94.3

###

Reported values of Dmax for individual entries
target under test: BCL-xL (Homo sapiens, UniProt Q07817)
Construct: endogenous in cells
Sequence (Q07817 whole entry): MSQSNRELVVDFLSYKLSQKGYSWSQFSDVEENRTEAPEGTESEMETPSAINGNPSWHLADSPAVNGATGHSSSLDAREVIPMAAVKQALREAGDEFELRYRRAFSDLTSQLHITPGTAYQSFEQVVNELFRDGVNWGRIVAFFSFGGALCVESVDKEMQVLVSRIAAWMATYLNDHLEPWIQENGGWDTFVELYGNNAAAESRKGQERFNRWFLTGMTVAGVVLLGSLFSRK
test name: BCL-xL degradation by immunoblot in 293T cells
Type: cell-based
condition: HEK-293T
// return numeric value only (unit: %, not printed)

Give the observed Dmax of Cc1ncsc1-c1ccc([C@H](C)NC(=O)[C@@H]2C[C@@H](O)CN2C(=O)[C@@H](NC(=O)CCCCCCC(=O)N2CCN(CC3(C)CCC(c4ccc(Cl)cc4)=C(CN4CCN(c5ccc(C(=O)NS(=O)(=O)c6ccc(N[C@H](CCN7CCOCC7)CSc7ccccc7)c(S(=O)(=O)C(F)(F)F)c6)cc5)CC4)C3)CC2)C(C)(C)C)cc1 (stereo partly drawn) for BCL-xL (Homo sapiens, UniProt Q07817).
94

Quote Dmax with test system BCL-xL (Homo sapiens, UniProt Q07817) for Cc1ncsc1-c1ccc([C@H](C)NC(=O)[C@@H]2C[C@@H](O)CN2C(=O)[C@@H](NC(=O)CCCC(=O)N2CCN(CC3(C)CCC(c4ccc(Cl)cc4)=C(CN4CCN(c5ccc(C(=O)NS(=O)(=O)c6ccc(N[C@H](CCN7CCOCC7)CSc7ccccc7)c(S(=O)(=O)C(F)(F)F)c6)cc5)CC4)C3)CC2)C(C)(C)C)cc1 (stereo partly drawn)
56

Identify measured Dmax obtained with BCL-xL (Homo sapiens, UniProt Q07817) for Cc1ncsc1-c1ccc([C@H](C)NC(=O)[C@@H]2C[C@@H](O)CN2C(=O)[C@@H](NC(=O)CCCCCCCCCC(=O)N2CCN(CC3(C)CCC(c4ccc(Cl)cc4)=C(CN4CCN(c5ccc(C(=O)NS(=O)(=O)c6ccc(N[C@H](CCN7CCOCC7)CSc7ccccc7)c(S(=O)(=O)C(F)(F)F)c6)cc5)CC4)C3)CC2)C(C)(C)C)cc1 (stereo partly drawn) .
38

###

test name: Viability (MTS) of 293T cells
Format: cell-based, human
condition: human, 293T cell viability, MTS absorbance 490 as percent of untreated control, mean of three wells, 3 uM, mean of 3 wells, normalised to own plate
measurement type: viability at 72 h, 3 µM (%)
Write the number in % without appending the unit.

Supply viability at 72 h, 3 µM value. Item: CC1(C)CCC(c2ccc(Cl)cc2)=C(CN2CCN(c3ccc(C(=O)NS(=O)(=O)c4ccc(N[C@H](CCN5CCOCC5)CSc5ccccc5)c(S(=O)(=O)C(F)(F)F)c4)cc3)CC2)C1
61.1

###

target under test: BCL-xL (Homo sapiens, UniProt Q07817)
Construct: endogenous in cells
test name: BCL-xL degradation by immunoblot in 293T cells
Format: cell-based
condition: 293T cells, four concentrations, 16 h; Fig. 2b; read-out: BCL-xL DC50
measurement type: DC50 (nM)
Answer with a number only, understood to be in nM.

INSERT INTO results (compound, unit_of_measurement, recorded_value) VALUES
  ('Cc1ncsc1-c1ccc([C@H](C)NC(=O)[C@@H]2C[C@@H](O)CN2C(=O)[C@@H](NC(=O)CCCCCC(=O)N2CCN(CC[C@H](CSc3ccccc3)Nc3ccc(S(=O)(=O)NC(=O)c4ccc(N5CCN(CC6=C(c7ccc(Cl)cc7)CCC(C)(C)C6)CC5)cc4)cc3S(=O)(=O)C(F)(F)F)CC2)C(C)(C)C)cc1 [DT2216]', 'nM', 20.3),
  ('Cc1ncsc1-c1ccc([C@H](C)NC(=O)[C@@H]2C[C@@H](O)CN2C(=O)[C@@H](NC(=O)CCCCCCCC(=O)N2CCN(CC3(C)CCC(c4ccc(Cl)cc4)=C(CN4CCN(c5ccc(C(=O)NS(=O)(=O)c6ccc(N[C@H](CCN7CCOCC7)CSc7ccccc7)c(S(=O)(=O)C(F)(F)F)c6)cc5)CC4)C3)CC2)C(C)(C)C)cc1 (stereo partly shown) [PPC9]', 'nM', 12.8),
  ('Cc1ncsc1-c1ccc([C@H](C)NC(=O)[C@@H]2C[C@@H](O)CN2C(=O)[C@@H](NC(=O)CCCC(=O)N2CCN(CC3(C)CCC(c4ccc(Cl)cc4)=C(CN4CCN(c5ccc(C(=O)NS(=O)(=O)c6ccc(N[C@H](CCN7CCOCC7)CSc7ccccc7)c(S(=O)(=O)C(F)(F)F)c6)cc5)CC4)C3)CC2)C(C)(C)C)cc1 (stereo partly shown) [PPC5]', 'nM', 316);

Tell me its DC50 given Cc1ncsc1-c1ccc([C@H](C)NC(=O)[C@@H]2C[C@@H](O)CN2C(=O)[C@@H](NC(=O)CCCCCCCCC(=O)N2CCN(CC3(C)CCC(c4ccc(Cl)cc4)=C(CN4CCN(c5ccc(C(=O)NS(=O)(=O)c6ccc(N[C@H](CCN7CCOCC7)CSc7ccccc7)c(S(=O)(=O)C(F)(F)F)c6)cc5)CC4)C3)CC2)C(C)(C)C)cc1 (stereo partly shown) [PPC10] as the entry.
12.1

###

target under test: BCL-2 (Homo sapiens)
Construct: endogenous in cells
Sequence (P10415 whole entry): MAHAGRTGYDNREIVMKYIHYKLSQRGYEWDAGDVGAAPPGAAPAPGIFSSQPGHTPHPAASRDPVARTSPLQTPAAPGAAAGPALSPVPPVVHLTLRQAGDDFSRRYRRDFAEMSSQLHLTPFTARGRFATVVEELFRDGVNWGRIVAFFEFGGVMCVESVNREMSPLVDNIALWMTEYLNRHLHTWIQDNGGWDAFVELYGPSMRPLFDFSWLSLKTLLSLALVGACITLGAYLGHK
test name: BCL-2 degradation by immunoblot in 293T cells
Assay type: cell-based
condition: HEK-293T
Dmax overview
Express the result in % but write the number alone.

INSERT INTO measurements (compound, target_under_test, measurement_type, recorded_value) VALUES
  ('Cc1ncsc1-c1ccc([C@H](C)NC(=O)[C@@H]2C[C@@H](O)CN2C(=O)[C@@H](NC(=O)CCCCCC(=O)N2CCN(CC[C@H](CSc3ccccc3)Nc3ccc(S(=O)(=O)NC(=O)c4ccc(N5CCN(CC6=C(c7ccc(Cl)cc7)CCC(C)(C)C6)CC5)cc4)cc3S(=O)(=O)C(F)(F)F)CC2)C(C)(C)C)cc1', 'BCL-2 (Homo sapiens)', 'Dmax', 0);

Determine its reported Dmax: Cc1ncsc1-c1ccc([C@H](C)NC(=O)[C@@H]2C[C@@H](O)CN2C(=O)[C@@H](NC(=O)CCCCCC(=O)N2CCN(CC3(C)CCC(c4ccc(Cl)cc4)=C(CN4CCN(c5ccc(C(=O)NS(=O)(=O)c6ccc(N[C@H](CCN7CCOCC7)CSc7ccccc7)c(S(=O)(=O)C(F)(F)F)c6)cc5)CC4)C3)CC2)C(C)(C)C)cc1 (stereo partly drawn)
79

Kindly indicate its recorded Dmax. Item: Cc1ncsc1-c1ccc([C@H](C)NC(=O)[C@@H]2C[C@@H](O)CN2C(=O)[C@@H](NC(=O)CCCCCCCC(=O)N2CCN(CC3(C)CCC(c4ccc(Cl)cc4)=C(CN4CCN(c5ccc(C(=O)NS(=O)(=O)c6ccc(N[C@H](CCN7CCOCC7)CSc7ccccc7)c(S(=O)(=O)C(F)(F)F)c6)cc5)CC4)C3)CC2)C(C)(C)C)cc1 (stereo partly drawn)
79
